EC50 by entry:
Target: CIC-1 ion channel (Rattus norvegicus, UniProt P35524)
Sequence (P35524 whole entry): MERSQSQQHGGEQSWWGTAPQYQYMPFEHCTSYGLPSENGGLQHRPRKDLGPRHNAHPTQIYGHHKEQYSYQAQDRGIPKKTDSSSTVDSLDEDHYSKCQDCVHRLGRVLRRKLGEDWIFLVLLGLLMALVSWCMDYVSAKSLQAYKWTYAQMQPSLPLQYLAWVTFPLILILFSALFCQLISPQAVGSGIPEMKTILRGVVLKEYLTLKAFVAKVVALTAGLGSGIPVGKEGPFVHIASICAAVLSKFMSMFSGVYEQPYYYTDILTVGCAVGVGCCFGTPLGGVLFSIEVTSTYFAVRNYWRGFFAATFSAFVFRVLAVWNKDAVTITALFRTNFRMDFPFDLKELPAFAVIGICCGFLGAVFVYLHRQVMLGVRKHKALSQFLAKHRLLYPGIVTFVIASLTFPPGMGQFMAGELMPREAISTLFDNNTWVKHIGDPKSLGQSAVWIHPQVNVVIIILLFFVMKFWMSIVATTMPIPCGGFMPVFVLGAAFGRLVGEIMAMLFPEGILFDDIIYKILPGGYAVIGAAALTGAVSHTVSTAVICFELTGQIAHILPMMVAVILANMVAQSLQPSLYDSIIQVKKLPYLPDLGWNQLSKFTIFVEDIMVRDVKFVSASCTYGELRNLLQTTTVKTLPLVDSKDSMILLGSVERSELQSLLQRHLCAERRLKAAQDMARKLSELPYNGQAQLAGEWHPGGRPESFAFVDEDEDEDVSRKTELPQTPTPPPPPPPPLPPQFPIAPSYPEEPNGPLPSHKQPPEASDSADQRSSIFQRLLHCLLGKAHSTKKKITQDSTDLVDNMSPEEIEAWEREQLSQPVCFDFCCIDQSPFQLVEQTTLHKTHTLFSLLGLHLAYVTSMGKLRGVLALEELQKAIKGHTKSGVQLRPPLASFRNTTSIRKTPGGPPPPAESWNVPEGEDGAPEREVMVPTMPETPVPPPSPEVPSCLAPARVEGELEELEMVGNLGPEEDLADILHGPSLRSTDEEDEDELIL
Experiment: Electrophysiological measurement of compound inhibition of CIC-1 in rat muscle (Gm, three micro-electrodes technique)
Settings: Gm in fibres of whole rat soleus muscle, four increasing compound concentrations; read-out: Potency Range (EC50, inhibition of CIC-1 ion channel)

CN1CCOc2c1cc(F)c(Cl)c2C(=O)O | 1 to 5 µM
COc1c(Cl)cc2c(c1C(=O)O)OCCN2C | 0.2 to 1 µM
COc1c(Cl)cc2c(c1C(=O)O)OCCN2Cc1ccsc1 | 1 to 5 µM
CCN1CCOc2c1cc(Cl)c(F)c2C(=O)O | 1 to 5 µM

For the next question, use this compound.
For COc1c(Cl)cc2c(c1C(=O)O)SCCN2C the compound record lists EC50 as 0.2 to 1 µM

====

Test system: isolated rat soleus muscles
Experiment: Measurement of force in an in vitro model: recovery of contractile force of isolated rat soleus nerve-muscle preparation after tubocurarine
Settings: 40 min, 50 μM of test compound, tubocurarine 115 nM, after 40 mins of compound exposure, read-out: Point increase (%): percentage increase of initial force that was restored
Rule: activation at 50 µM under 30% gives 0.0, otherwise 1.0.

Please review the following examples before continuing.
COc1c(Cl)cc2c(c1C(=O)O)OCCO2 | 1.0
CC(C)CCN1CCOc2c1cc(Cl)c(F)c2C(=O)O | 0.0
O=C(O)c1c(F)cc(Cl)c2c1OCCN2 | 1.0

### Prompt For this molecule, is measured activation at 50 µM 30% or higher? COc1c(Cl)cc2c(c1C(=O)O)OCCN2C(C)C
### Response 1.0

### Prompt For this molecule, is measured activation at 50 µM 30% or higher? O=C(O)c1c(F)c(Cl)cc2c1OCCN2CC1CC1
### Response 0.0

====

Target: CIC-1 ion channel (Rattus norvegicus, UniProt P35524)
Assay: Electrophysiological measurement of compound inhibition of CIC-1 in rat muscle (Gm, three micro-electrodes technique)
Conditions: Gm in fibres of whole rat soleus muscle, four increasing compound concentrations; read-out: Potency Range (EC50, inhibition of CIC-1 ion channel)
EC50 by entry:

CN1CCOc2c1cc(Cl)c(F)c2C(=O)O [Compound A-7] | 200 to 1000 nM
COc1c(Cl)cc2c(c1C(=O)O)OCCO2 [Compound A-1] | 5000 to 15000 nM
CN1CC(C)(C)Oc2c1cc(Cl)c(F)c2C(=O)O [Compound A-9] | 1000 to 5000 nM
CN1CCCOc2c1cc(Cl)c(F)c2C(=O)O [Compound A-13] | 1000 to 5000 nM
CC(C)CCN1CCOc2c1cc(Cl)c(F)c2C(=O)O [Compound A-17] | 5000 to 15000 nM
COc1ccc(CN2CCOc3cc(Cl)c(F)c(C(=O)O)c32)cc1 [Compound A-58] | 200 to 1000 nM

For O=C(O)c1c(F)c(Cl)cc2c1N(Cc1ccsc1)CCO2 [Compound A-54] the compound record lists EC50 as 200 to 1000 nM

For CN1CCOc2cc(Cl)c(F)c(C(=O)O)c21 [Compound A-3] the compound record lists EC50 as 1000 to 5000 nM

For COc1c(F)cc2c(c1C(=O)O)OCCN2C [Compound A-30] the compound record lists EC50 as 200 to 1000 nM

For CCCN1CCOc2c1cc(Cl)c(F)c2C(=O)O [Compound A-21] the compound record lists EC50 as 1000 to 5000 nM

For O=C(O)c1c(F)c(Cl)cc2c1OCCN2 [Compound A-6] the compound record lists EC50 as 5000 to 15000 nM
